# target.or.system: hNav1.7 (Homo sapiens (Human), UniProt Q15858)
# Sequence (Q15858 whole entry): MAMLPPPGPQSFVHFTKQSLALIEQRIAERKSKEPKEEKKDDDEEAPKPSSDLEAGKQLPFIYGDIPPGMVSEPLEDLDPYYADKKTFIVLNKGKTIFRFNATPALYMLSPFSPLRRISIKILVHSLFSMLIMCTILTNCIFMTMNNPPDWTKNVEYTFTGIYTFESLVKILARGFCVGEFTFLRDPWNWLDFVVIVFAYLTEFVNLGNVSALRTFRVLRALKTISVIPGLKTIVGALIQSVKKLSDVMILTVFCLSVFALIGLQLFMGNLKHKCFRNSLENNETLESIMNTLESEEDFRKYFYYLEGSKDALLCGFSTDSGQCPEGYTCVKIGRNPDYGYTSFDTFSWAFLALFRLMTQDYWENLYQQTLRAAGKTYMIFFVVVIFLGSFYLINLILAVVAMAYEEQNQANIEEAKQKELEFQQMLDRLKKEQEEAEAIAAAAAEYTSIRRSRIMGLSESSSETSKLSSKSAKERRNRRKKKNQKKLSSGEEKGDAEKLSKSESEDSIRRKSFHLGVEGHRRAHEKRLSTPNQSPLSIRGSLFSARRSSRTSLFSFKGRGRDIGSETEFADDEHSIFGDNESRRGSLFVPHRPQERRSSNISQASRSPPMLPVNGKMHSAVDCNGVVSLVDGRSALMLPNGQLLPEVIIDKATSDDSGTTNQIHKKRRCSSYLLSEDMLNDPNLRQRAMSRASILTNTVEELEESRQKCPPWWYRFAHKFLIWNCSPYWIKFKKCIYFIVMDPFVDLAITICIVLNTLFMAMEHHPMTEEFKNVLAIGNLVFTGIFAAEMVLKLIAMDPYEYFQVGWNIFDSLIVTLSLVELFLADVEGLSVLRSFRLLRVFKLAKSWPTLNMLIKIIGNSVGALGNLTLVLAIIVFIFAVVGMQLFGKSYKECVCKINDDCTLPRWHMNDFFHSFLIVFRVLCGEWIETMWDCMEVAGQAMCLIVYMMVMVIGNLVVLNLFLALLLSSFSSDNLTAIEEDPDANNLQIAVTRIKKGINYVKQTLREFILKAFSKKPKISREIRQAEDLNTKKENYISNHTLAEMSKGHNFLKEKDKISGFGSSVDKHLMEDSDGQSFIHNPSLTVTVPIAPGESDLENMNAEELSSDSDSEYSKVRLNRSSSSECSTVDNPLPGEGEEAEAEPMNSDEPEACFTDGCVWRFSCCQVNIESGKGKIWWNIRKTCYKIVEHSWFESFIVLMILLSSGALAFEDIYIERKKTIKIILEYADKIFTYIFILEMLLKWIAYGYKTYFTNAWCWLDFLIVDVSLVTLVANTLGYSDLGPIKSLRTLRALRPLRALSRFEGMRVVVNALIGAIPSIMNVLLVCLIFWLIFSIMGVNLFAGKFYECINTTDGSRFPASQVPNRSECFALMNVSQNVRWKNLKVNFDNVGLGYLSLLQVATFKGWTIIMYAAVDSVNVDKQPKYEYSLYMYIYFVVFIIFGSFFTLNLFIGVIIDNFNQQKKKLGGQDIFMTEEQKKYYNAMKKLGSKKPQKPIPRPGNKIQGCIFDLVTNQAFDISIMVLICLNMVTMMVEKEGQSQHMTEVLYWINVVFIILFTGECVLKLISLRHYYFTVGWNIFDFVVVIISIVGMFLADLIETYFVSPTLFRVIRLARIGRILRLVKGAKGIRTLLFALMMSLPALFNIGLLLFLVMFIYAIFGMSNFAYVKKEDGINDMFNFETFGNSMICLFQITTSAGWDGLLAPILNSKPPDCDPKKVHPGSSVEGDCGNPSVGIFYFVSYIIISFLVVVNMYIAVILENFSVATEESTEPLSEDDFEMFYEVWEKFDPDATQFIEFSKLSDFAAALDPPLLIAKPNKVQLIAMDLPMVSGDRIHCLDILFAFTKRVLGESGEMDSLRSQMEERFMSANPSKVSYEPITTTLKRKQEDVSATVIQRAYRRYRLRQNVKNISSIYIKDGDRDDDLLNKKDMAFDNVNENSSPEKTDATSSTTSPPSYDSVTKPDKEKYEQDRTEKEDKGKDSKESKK
# Sequence (Q07699 19-218 partner): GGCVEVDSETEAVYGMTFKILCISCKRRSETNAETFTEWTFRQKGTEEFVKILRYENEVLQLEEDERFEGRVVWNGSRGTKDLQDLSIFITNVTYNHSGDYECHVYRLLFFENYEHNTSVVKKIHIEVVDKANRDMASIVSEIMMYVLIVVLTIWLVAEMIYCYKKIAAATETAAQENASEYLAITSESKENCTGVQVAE
# assay.comment: Ligand binding assay: tritiated sulfonamide binding to membranes from cells expressing hNav1.7 and the β1 subunit
Counter-ions that a name gives are not always drawn.
quantity.name: IC50 (nM)
Give the value in nM but do not write nM after it.

Value of measured IC50 for the entry CS(=O)(=O)NC(=O)c1cc(C2CC2)c(CN2CCN(S(=O)(=O)c3cc(Cl)cc(Cl)c3)CC2)cc1F [Example 526, trifluoroacetic acid salt] : 20.2

====

# target.or.system: NaV1.7 (Homo sapiens (Human))
# Sequence (Q15858 other isoform, or with tags, fused parts or gaps, one chain of several): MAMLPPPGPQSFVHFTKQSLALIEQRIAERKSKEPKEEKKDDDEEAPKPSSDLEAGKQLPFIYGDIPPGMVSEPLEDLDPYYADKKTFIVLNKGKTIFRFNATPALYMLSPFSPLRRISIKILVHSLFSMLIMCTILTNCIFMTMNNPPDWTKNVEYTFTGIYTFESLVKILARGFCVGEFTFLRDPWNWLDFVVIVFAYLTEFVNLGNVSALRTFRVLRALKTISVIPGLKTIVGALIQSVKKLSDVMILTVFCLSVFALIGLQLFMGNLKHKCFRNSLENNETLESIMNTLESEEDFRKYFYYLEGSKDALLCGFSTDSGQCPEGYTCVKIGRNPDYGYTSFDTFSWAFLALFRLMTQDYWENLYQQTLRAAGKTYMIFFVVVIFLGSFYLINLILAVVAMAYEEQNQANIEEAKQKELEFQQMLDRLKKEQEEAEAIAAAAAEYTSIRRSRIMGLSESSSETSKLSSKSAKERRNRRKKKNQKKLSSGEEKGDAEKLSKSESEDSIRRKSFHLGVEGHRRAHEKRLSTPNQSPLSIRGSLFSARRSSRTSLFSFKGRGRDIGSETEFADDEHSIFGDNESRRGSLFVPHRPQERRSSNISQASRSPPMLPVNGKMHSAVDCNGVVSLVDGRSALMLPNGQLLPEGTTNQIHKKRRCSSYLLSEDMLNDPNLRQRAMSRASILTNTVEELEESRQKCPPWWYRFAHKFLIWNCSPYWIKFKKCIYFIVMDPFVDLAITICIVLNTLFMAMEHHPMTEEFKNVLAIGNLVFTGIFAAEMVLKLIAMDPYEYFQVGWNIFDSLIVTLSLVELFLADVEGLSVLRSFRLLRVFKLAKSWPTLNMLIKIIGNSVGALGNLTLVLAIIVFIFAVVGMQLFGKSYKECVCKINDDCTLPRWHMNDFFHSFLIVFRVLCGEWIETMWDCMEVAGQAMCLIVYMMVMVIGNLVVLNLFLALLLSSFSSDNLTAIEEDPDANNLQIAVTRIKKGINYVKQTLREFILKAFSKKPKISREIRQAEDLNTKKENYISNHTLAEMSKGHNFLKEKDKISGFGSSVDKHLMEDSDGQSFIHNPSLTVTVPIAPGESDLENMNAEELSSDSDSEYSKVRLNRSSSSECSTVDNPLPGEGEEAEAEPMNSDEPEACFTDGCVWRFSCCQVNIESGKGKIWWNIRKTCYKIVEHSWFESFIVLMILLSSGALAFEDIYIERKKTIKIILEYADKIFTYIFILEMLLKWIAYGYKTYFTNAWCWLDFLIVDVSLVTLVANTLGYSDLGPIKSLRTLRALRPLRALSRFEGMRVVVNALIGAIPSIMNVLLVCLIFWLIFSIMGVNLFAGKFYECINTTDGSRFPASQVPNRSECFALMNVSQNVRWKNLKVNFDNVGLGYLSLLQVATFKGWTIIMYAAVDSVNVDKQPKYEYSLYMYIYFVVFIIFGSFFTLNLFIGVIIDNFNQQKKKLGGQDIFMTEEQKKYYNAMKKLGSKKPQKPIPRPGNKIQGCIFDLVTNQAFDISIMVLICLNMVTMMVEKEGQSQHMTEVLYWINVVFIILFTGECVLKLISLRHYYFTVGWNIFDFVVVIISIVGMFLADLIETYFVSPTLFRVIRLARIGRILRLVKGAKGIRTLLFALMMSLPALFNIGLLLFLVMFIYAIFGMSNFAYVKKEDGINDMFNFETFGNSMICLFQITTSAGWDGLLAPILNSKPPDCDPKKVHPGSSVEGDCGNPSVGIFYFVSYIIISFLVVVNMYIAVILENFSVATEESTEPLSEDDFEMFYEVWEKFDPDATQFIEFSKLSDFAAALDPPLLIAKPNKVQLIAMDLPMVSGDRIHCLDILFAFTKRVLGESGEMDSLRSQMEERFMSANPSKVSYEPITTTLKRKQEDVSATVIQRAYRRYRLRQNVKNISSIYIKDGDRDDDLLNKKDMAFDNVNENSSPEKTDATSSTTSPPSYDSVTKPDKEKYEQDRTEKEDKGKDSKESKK
# assay.comment: Electrophysiological assay (EP), patch voltage clamp, NaV1.7
# conditions.used: HEK-293 cells stably expressing human NaV1.7 with β1 subunit, whole-cell patch clamp, held at −60 mV (inactivated state)
quantity.name: IC50 (nM)
Give the value in nM but do not write nM after it.

Value of measured IC50 for the entry C[C@@H](c1cc(Cl)cc(Cl)c1)N1CCC(COc2cc(F)c(C(=O)NS(=O)(=O)C3CC3)cc2C2CC2)CC1 (single isomer, unassigned) [Example 270] : 5.8

====

# target.or.system: hNav1.7 (Homo sapiens (Human), UniProt Q15858)
# assay.comment: Ligand binding assay: tritiated sulfonamide binding to membranes from cells expressing hNav1.7 and the β1 subunit
# conditions.used: read-out: Ligand Binding Assay; competition with 100 pM [3H]compound, membranes with hNav1.7 and β1 subunit, room temperature, 18 h
Counter-ions that a name gives are not always drawn.
Provide the reported log10 IC50 of each item.
Values are log10 of IC50 in nM.

Value of measured log10 IC50 for the entry O=C(NS(=O)(=O)C1CC1)c1cc(Cl)c(O[C@@H]2CCCN(Cc3ccc(F)cc3Cl)C2)cc1F [Example 39, trifluoroacetic acid salt] : 0.83

Value of measured log10 IC50 for the entry C[C@H](c1cc(Cl)cc(Cl)c1)N1CCC[C@H](COc2cc(F)c(C(=O)NS(C)(=O)=O)cc2C2CC2)C1 (single isomer, unassigned) [Example 337, trifluoroacetic acid salt] : 1.05

Value of measured log10 IC50 for the entry C[C@@H](c1cc(Cl)cc(Cl)c1)N1CCC[C@H](COc2cc(F)c(C(=O)NS(C)(=O)=O)cc2C2CC2)C1 (single isomer, unassigned) [Example 338, trifluoroacetic acid salt] : 0.87

Value of measured log10 IC50 for the entry C[C@@H](c1cc(Cl)cc(Cl)c1)N1CCC(COc2cc(F)c(C(=O)NS(=O)(=O)C3CC3)cc2C2CC2)CC1 (single isomer, unassigned) [Example 270] : 0.70

Value of measured log10 IC50 for the entry O=C(NS(=O)(=O)C1CC1)c1cc(C2CC2)c(CN2CCC(Oc3ccc(C(F)(F)F)cn3)CC2)cc1F [Example 477, trifluoroacetic acid salt] : 1.15

Value of measured log10 IC50 for the entry CS(=O)(=O)NC(=O)c1cc(C2CC2)c(OCC2CCN(Cc3cccc(Cl)c3)CC2)cc1F [Example 92] : 1.48

Value of measured log10 IC50 for the entry CS(=O)(=O)NC(=O)c1cc(C2CC2)c(OCC2CCN(S(=O)(=O)C3COC3)CC2)cc1F [Example 392] : 3.31

Value of measured log10 IC50 for the entry C[C@@H](c1cc(Cl)cc(Cl)c1)N1CCC[C@@H](Oc2cc(F)c(C(=O)NS(C)(=O)=O)cc2C2CC2)C1 [Example 50] : 0.28

Value of measured log10 IC50 for the entry C[C@@H]1CC[C@@H](COc2cc(F)c(C(=O)NS(C)(=O)=O)cc2C2CC2)CN1[C@@H](C)c1cc(Cl)cc(Cl)c1 (single isomer, unassigned) [Example 342, trifluoroacetic acid salt] : 0.76
